# credit: ChEMBL document CHEMBL5030543

Molecular target: hERG (KCNH2) (Homo sapiens)
Sequence (Q12809 whole entry): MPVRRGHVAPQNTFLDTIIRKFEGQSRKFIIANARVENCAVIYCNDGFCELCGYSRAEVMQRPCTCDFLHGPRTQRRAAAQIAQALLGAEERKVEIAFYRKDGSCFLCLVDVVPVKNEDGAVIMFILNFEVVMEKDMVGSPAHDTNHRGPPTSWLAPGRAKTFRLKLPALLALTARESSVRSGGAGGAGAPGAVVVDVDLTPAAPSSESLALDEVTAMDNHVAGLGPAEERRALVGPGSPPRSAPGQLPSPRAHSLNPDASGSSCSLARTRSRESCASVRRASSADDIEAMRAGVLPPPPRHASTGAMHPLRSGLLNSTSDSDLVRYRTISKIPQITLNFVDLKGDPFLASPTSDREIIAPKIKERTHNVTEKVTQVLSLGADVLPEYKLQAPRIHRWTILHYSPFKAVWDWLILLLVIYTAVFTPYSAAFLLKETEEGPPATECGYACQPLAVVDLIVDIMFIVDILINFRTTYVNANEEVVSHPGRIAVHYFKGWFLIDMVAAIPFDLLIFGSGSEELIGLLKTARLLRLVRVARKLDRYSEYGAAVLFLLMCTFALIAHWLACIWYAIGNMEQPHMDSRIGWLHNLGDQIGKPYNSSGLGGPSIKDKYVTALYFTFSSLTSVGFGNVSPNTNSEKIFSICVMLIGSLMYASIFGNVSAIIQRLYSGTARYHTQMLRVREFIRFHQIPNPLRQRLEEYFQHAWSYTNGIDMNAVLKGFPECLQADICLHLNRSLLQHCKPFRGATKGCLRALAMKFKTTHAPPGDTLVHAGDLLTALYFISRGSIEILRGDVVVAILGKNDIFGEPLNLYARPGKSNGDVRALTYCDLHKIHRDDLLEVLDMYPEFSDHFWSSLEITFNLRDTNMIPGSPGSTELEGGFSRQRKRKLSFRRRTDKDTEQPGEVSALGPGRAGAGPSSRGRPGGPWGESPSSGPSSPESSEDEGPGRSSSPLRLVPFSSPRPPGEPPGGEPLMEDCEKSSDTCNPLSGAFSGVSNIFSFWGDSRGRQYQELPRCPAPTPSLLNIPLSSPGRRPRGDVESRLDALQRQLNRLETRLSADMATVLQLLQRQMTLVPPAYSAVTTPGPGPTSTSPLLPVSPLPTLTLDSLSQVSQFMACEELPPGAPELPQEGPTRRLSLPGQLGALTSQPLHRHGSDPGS
Assay: in vitro
Conditions: CHO cells expressing hERG
Description: Inhibition of hERG (unknown origin) expressed in CHO cells at 5 uM at -80 mV holding potential by automated patch clamp method relative to control
Reported inhibition at 5 µM values follow for various compounds
measurement-kind: inhibition at 5 µM

smiles_structure=C[C@H]1SC(N)=N[C@](C)(c2cc(NC(=O)c3cc4c(cn3)OCCC4)ccc2F)[C@H]1F result_value=16%
smiles_structure=C[C@H]1SC(N)=N[C@](C)(c2cc(NC(=O)c3ccc(OCF)cn3)ccc2F)[C@H]1F result_value=39%
smiles_structure=C[C@H]1SC(N)=N[C@](C)(c2cc(NC(=O)c3cc4c(cn3)CCCO4)ccc2F)[C@H]1F result_value=16%

====

Reported pIC50 values follow for various molecules
Molecular target: Beta-secretase 1 (Homo sapiens)
Sequence (P56817 whole entry): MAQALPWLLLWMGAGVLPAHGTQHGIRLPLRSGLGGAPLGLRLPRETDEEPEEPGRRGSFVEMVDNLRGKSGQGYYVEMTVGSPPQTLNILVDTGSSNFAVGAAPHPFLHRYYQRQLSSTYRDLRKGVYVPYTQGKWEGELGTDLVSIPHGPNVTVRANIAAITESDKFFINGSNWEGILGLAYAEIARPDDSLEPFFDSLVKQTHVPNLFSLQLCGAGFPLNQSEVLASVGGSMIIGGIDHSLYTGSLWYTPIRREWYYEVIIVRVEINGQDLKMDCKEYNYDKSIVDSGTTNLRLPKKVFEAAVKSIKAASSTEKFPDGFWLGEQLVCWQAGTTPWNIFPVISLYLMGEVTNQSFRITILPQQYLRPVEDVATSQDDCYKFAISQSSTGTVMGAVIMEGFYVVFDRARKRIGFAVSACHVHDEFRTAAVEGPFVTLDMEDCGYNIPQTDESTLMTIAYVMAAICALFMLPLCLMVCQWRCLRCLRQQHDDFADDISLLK
Assay: Inhibition of BACE1 in human SKNBE2 cells expressing wildtype APP assessed as reduction in amyloid beta 42 level incubated for 18 hrs by sandwich AlphaLISA assay
Assay type: cell-based
pIC50: −log10 of the molar value.
measurement-kind: pIC50

smiles_structure=C[C@H]1SC(N)=N[C@](C)(c2cc(NC(=O)c3cc4c(cn3)OCCC4)ccc2F)[C@H]1F result_value=6.91
smiles_structure=C[C@H]1SC(N)=N[C@](C)(c2cc(NC(=O)c3cc4c(cn3)CCCO4)ccc2F)[C@H]1F result_value=7.54
smiles_structure=C[C@H]1SC(N)=N[C@](C)(c2cc(NC(=O)c3ccc(OCF)cn3)ccc2F)[C@H]1F result_value=8.96

====

Reported remaining at 0.5 h, 0.1 µM values follow for various compounds
Assay: in vitro
Settings: human, liver microsomes
Description: Metabolic stability in human liver microsomes assessed as parent compound remaining at 0.1 uM incubated for 30 mins in presence of NADPH by LC-MS/MS analysis
measurement-kind: remaining at 0.5 h, 0.1 µM (%)

smiles_structure=C[C@H]1SC(N)=N[C@](C)(c2cc(NC(=O)c3cc4c(cn3)OCCC4)ccc2F)[C@H]1F readout_unit=% result_value=32
smiles_structure=C[C@H]1SC(N)=N[C@](C)(c2cc(NC(=O)c3ccc(OCF)cn3)ccc2F)[C@H]1F readout_unit=% result_value=77
smiles_structure=C[C@H]1SC(N)=N[C@](C)(c2cc(NC(=O)c3cc4c(cn3)CCCO4)ccc2F)[C@H]1F readout_unit=% result_value=32

====

Molecular target: P-gp (MDR1, ABCB1) (Homo sapiens, UniProt P08183)
Sequence (P08183 whole entry): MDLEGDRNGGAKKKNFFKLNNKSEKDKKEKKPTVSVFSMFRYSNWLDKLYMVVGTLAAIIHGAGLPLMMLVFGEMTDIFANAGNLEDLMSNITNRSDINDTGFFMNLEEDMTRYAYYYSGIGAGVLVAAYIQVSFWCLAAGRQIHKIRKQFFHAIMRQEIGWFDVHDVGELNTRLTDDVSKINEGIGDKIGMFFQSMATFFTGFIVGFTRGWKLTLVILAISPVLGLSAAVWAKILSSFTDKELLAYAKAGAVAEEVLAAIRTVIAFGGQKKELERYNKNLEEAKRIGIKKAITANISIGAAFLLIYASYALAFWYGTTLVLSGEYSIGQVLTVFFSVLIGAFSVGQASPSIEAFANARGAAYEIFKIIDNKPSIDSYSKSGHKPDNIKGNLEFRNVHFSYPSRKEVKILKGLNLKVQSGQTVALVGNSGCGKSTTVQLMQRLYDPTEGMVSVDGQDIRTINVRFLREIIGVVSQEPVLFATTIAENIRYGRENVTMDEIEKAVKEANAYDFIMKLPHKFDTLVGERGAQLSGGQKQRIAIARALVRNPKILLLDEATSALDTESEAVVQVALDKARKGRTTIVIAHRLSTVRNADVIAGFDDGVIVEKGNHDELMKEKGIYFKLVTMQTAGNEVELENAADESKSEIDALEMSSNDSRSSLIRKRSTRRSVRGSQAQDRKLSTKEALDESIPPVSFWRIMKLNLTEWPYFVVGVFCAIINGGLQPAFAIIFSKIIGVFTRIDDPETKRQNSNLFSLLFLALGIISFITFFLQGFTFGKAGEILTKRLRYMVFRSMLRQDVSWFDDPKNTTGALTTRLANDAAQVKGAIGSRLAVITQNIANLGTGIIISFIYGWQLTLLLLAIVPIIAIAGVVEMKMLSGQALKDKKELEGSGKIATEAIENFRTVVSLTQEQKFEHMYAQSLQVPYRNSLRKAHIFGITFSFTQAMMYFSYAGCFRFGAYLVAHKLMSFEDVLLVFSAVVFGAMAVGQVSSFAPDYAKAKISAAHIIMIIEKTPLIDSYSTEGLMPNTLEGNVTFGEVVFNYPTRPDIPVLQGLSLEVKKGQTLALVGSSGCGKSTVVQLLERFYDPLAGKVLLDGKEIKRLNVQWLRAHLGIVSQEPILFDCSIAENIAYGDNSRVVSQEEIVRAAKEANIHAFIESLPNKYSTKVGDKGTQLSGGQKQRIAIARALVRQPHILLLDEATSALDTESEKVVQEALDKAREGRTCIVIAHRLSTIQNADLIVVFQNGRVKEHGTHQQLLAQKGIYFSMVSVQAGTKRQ
Assay: in vitro
Details: LLC-PK1
Description: Substrate activity at P-gp (unknown origin) expressed in LLC-PK1 cells transfected with human MDR1 gene assessed as efflux ratio
measurement-kind: efflux ratio

smiles_structure=C[C@H]1SC(N)=N[C@](C)(c2cc(NC(=O)c3cc4c(cn3)CCCO4)ccc2F)[C@H]1F result_value=1.6
smiles_structure=C[C@H]1SC(N)=N[C@](C)(c2cc(NC(=O)c3ccc(OCF)cn3)ccc2F)[C@H]1F result_value=0.6
smiles_structure=C[C@H]1SC(N)=N[C@](C)(c2cc(NC(=O)c3cc4c(cn3)OCCC4)ccc2F)[C@H]1F result_value=1.3

====

Assay: in vitro
Conditions: rat, liver microsomes
Description: Metabolic stability in rat liver microsomes assessed as parent compound remaining at 0.1 uM incubated for 30 mins in presence of NADPH by LC-MS/MS analysis
measurement-kind: remaining at 0.5 h, 0.1 µM (%)

smiles_structure=C[C@H]1SC(N)=N[C@](C)(c2cc(NC(=O)c3cc4c(cn3)CCCO4)ccc2F)[C@H]1F result_value=10
smiles_structure=C[C@H]1SC(N)=N[C@](C)(c2cc(NC(=O)c3cnc(OCF)cn3)ccc2F)[C@H]1F result_value=86
smiles_structure=C[C@H]1SC(N)=N[C@](C)(c2cc(NC(=O)c3ccc(OCF)cn3)ccc2F)[C@H]1F result_value=70
smiles_structure=C[C@H]1SC(N)=N[C@](C)(c2cc(NC(=O)c3cc4c(cn3)OCCC4)ccc2F)[C@H]1F result_value=25

====

Target: Beta-secretase 2 (Homo sapiens, UniProt Q9Y5Z0)
pKi: −log10 of the molar value.
measurement-kind: pKi

smiles_structure=C[C@H]1SC(N)=N[C@](C)(c2cc(NC(=O)c3cnc(OCF)cn3)ccc2F)[C@H]1F result_value=9.92

====

Sequence of the target: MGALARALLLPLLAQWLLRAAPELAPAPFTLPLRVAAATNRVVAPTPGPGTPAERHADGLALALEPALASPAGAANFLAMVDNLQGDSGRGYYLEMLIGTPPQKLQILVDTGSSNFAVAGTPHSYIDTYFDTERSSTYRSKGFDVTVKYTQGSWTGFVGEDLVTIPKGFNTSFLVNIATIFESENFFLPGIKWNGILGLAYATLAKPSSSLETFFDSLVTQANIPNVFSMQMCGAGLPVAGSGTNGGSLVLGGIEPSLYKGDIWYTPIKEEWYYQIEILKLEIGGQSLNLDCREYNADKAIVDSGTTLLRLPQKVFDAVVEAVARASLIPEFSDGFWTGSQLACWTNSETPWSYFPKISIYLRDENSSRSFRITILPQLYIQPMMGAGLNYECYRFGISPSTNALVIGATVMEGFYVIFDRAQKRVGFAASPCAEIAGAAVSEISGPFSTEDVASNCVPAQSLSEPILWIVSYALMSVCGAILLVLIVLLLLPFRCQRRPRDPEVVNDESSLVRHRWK
pIC50: −log10 of the molar value.
Reported pIC50 values follow for various compounds
measurement-kind: pIC50

smiles_structure=C[C@H]1SC(N)=N[C@](C)(c2cc(NC(=O)c3cnc(OCF)cn3)ccc2F)[C@H]1F result_value=7.41
smiles_structure=C[C@H]1SC(N)=N[C@](C)(c2cc(NC(=O)c3cc4c(cn3)OCCC4)ccc2F)[C@H]1F result_value=5.67

====

Target: Beta-secretase 2 (Homo sapiens)
Assay: Binding affinity to BACE2 (unknown origin)
measurement-kind: Ki (nM)

smiles_structure=Cc1nc(C(=O)Nc2ccc(F)c([C@]3(C)Cn4nc(C#N)cc4C(N)=N3)c2)co1 readout_unit=nM result_value=0.29
